Test: in vitro
Conditions: human, WI38 cells
Description: Selectivity index, ratio of IC50 against human WI38 cells to IC50 for Trypanosoma brucei brucei Lister 427 bloodstream forms
Assay Metric: selectivity ratio

Example entries and their recorded answers appear below.
>  <Chemical Smiles>
C=C[C@H]1CN2CC[C@H]1C[C@H]2[C@H](O)c1cc(CC[C@@H](C)[C@H]2CC[C@H]3[C@@H]4C[C@H](O)[C@@H]5C[C@H](O)CC[C@]5(C)[C@H]4CC[C@]23C)nc2ccccc12

>  <Result>
6.2

$$$$
>  <Chemical Smiles>
C=C[C@H]1CN2CC[C@H]1C[C@H]2[C@H](O)c1cc(CC[C@@H](C)[C@H]2CC[C@H]3[C@@H]4[C@H](O)[C@H](O)[C@@H]5C[C@H](O)CC[C@]5(C)[C@H]4CC[C@]23C)nc2ccccc12

>  <Result>
8.6

$$$$
>  <Chemical Smiles>
C=C[C@H]1CN2CC[C@H]1C[C@H]2[C@H](O)c1cc(CC[C@@H](C)[C@H]2CC[C@H]3[C@@H]4CC[C@@H]5C[C@H](O)CC[C@]5(C)[C@H]4C[C@H](O)[C@]23C)nc2ccccc12

>  <Result>
8.6

$$$$
>  <Chemical Smiles>
C=C[C@H]1CN2CC[C@H]1C[C@@H]2[C@@H](O)c1cc(CC[C@@H](C)[C@H]2CC[C@H]3[C@@H]4[C@H](OC(C)=O)C[C@@H]5C[C@H](OC(C)=O)CC[C@]5(C)[C@H]4C[C@H](OC(C)=O)[C@]23C)nc2ccccc12

>  <Result>
9.3

$$$$
>  <Chemical Smiles>
C=C[C@H]1CN2CC[C@H]1C[C@H]2[C@H](O)c1cc(CC[C@@H](C)[C@H]2CC[C@H]3[C@@H]4[C@H](OC(C)=O)C[C@@H]5C[C@H](OC(C)=O)CC[C@]5(C)[C@H]4C[C@H](OC(C)=O)[C@]23C)nc2ccc(OC)cc12

>  <Result>
9.3

$$$$

[ask] Endpoint output: selectivity ratio of C=C[C@H]1CN2CC[C@H]1C[C@H]2[C@H](O)c1cc(CC[C@@H](C)[C@H]2CC[C@H]3[C@@H]4CC[C@@H]5C[C@H](OC(C)=O)CC[C@]5(C)[C@H]4C[C@H](OC(C)=O)[C@]23C)nc2ccccc12 . Value?
[reply] 7.1

[ask] Query: selectivity ratio; subject: C=C[C@H]1CN2CC[C@H]1C[C@H]2[C@H](O)c1cc(CC[C@@H](C)[C@H]2CC[C@H]3[C@@H]4[C@H](OC(C)=O)C[C@@H]5C[C@H](OC(C)=O)CC[C@]5(C)[C@H]4C[C@H](OC(C)=O)[C@]23C)nc2ccccc12
[reply] 4.6

[ask] Dear colleague, I am looking for the recorded selectivity ratio of the following molecule: C=C[C@H]1CN2CC[C@H]1C[C@H]2[C@H](O)c1cc(CC[C@@H](C)[C@H]2CC[C@H]3[C@@H]4[C@H](O)[C@H](O)[C@@H]5C[C@H](O)CC[C@]5(C)[C@H]4CC[C@]23C)nc2ccc(OC)cc12
[reply] 7.3
